Molecular target: T1, cell-bound CD73 (human, UniProt P21589 27-549)
T1 sequence (looked up): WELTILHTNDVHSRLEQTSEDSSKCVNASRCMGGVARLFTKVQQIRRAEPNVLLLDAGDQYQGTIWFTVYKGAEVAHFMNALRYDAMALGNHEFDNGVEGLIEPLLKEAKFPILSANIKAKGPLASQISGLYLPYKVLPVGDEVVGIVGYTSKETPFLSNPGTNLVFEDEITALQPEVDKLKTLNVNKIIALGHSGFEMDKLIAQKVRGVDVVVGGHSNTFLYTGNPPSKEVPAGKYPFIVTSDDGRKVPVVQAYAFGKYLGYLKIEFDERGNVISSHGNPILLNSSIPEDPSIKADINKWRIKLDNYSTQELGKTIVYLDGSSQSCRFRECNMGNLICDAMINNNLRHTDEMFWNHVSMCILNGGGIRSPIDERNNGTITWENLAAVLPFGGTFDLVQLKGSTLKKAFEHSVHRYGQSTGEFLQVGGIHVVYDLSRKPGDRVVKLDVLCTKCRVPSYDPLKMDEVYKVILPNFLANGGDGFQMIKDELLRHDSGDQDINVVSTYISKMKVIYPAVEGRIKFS
Assay: cell-based or functional assay
quantity.name: CD8 T cell proliferation [% of control], Donor E, 1 nM antibody (%)
Give just the number in %; leave the unit off.

Entry B2 (antibody, human IgG1, kappa, L234A L235A, V domains shown, Humanized monoclonal antibody; also called anti-CD73 antibody B2) VH: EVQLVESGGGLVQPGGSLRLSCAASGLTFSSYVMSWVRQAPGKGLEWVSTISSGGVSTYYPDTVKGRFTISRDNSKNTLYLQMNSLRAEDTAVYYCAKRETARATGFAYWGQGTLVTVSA VL: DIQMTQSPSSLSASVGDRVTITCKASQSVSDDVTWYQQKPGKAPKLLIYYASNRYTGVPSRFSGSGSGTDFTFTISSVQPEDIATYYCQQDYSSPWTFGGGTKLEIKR — recorded CD8 T cell proliferation [% of control], Donor E, 1 nM antibody = 99.1

In plain terms, C1 (antibody, human IgG1, kappa, L234A L235A, V domains shown, Humanized monoclonal antibody; also called anti-CD73 antibody C1) VH: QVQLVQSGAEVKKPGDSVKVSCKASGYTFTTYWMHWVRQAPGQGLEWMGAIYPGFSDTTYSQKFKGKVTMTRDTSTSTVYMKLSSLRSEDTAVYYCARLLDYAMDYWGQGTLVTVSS VL: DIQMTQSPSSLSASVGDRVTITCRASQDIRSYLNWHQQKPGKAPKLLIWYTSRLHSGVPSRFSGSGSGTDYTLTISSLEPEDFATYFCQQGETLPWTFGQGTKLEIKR has a documented CD8 T cell proliferation [% of control], Donor E, 1 nM antibody of 101

Just so you know, measured CD8 T cell proliferation [% of control], Donor E, 1 nM antibody for C3 (antibody, human IgG1, kappa, L234A L235A, V domains shown, Humanized monoclonal antibody; also called anti-CD73 antibody C3) VH: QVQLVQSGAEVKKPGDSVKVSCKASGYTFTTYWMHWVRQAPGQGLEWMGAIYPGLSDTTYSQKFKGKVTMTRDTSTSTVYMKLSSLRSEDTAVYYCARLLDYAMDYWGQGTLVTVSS VL: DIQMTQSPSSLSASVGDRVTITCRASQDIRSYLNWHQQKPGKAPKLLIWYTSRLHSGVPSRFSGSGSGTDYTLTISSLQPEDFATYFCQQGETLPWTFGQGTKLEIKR came out at 101
